Each recorded value in this set is attributed to ChEMBL document CHEMBL1157829.

# protocol.summary: Clearance in Wistar rat at 10 mg/kg, po and 1 mg/kg, iv
# Type: ADME, organism-based
# condition.info: in vivo
clearance values, listed per item
Quick reminder: number only, in mL/min/kg, skip the unit.

Examples from the recorded data:
| molecule | measurement.units | clearance |
| --- | --- | --- |
| CC(C)/N=C1\S/C(=C\c2ccc(OCCO)cc2)C(=O)N1c1ccccc1 | mL/min/kg | 32 |
| CCC/N=C1\S/C(=C\c2ccc(OCC(O)CO)c(Cl)c2)C(=O)N1c1ccccc1C (racemic) | mL/min/kg | 41 |

Kindly review the next molecule as well.
Can you look up the measured clearance of Cc1ccccc1N1C(=O)/C(=C/c2ccc(O)c(Cl)c2)S/C1=N\C(C)C for me?
105
